B1: Hairpin Ribozyme (parent)
chain: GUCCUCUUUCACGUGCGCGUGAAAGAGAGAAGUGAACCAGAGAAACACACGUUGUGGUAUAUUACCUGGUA

# Variants of: B1
# method: self-cleavage, relative activity (ratio to wild type); higher = more cleavage; co-transcriptional
Would you mind labelling by self-cleavage? At or over 0.3 is TRUE, under is FALSE.

variant.name | qualitative.label
U70C A71U | TRUE

Check if self-cleavage >= 0.3 (inclusive). Item: A35G U70G
TRUE

Please indicate if the recorded self-cleavage for U2C C4U meets or exceeds 0.3.
FALSE

Does G1U U2A have a reported self-cleavage of at least 0.3?
FALSE
